Kindly return class 1 if reported logP is no lower than 3; return class 0 if it is lower.

// known answers, use as guide
| Line Notation | Label |
| --- | --- |
| CCOc1ccc(NC(=O)OCCOC)cc1OCC | class 0 |
| COC(=O)Nc1cccc(F)c1 | class 0 |
| CCOC(=O)Nc1ccc(OCC)c(OCC)c1 | class 0 |
| CCOc1ccc(NC(=O)OC(CBr)CBr)cc1OCC | class 1 |

Hello, I need to know if CCOc1ccc(NC(=O)OCc2ccccc2)cc1OCC has measured logP not below 3. Thanks!
class 1

Hello, I need to know if COC(=O)Nc1ccc(F)cc1 has measured logP not below 3. Thanks!
class 0

* * *

Reported logP values are given for each entry in this list.
Assay Name: method code SF-AS, from DOI: 10.1016/s0021-9673(00)94589-8, PMID: 3356765

| Line Notation | logP |
| --- | --- |
| COC(=O)Nc1ccccc1Br | 2.25 |
| CCc1cccc(NC(=O)OC)c1 | 2.72 |
| C#CCOC(=O)Nc1ccc(OCC)c(OCC)c1 | 2.68 |
| CCCCc1ccc(NC(=O)OC)cc1 | 3.68 |
| CCOc1ccc(NC(=O)OCCC#N)cc1OCC | 2.13 |

Reported logP of COC(=O)Nc1cccc(C(C)=O)c1 : 1.63

* * *

Reported logP values are given for each entry in this list.
A bare number is all that is needed in reply.

| Line Notation | logP |
| --- | --- |
| COC(=O)Nc1cccc(Cl)c1 | 2.59 |
| CCCCOC(=O)Nc1ccc(OCC)c(OCC)c1 | 3.35 |

Reported logP of COC(=O)Nc1ccc([N+](=O)[O-])cc1 : 1.98

Reported logP of COC(=O)Nc1ccc(Cl)cc1 : 2.52

* * *

Assay Name: method code SF-AS, from DOI: 10.1016/s0021-9673(00)94589-8, PMID: 3356765
Reported logP values are given for each entry in this list.
A bare number is all that is needed in reply.

Reference set, count: 6
| Line Notation | logP |
| --- | --- |
| COC(=O)Nc1ccccc1C | 1.69 |
| COC(=O)Nc1cccc(C#N)c1 | 1.77 |
| COC(=O)Nc1cccc(OC)c1 | 1.92 |
| CCOc1ccc(NC(=O)OC)cc1 | 2.11 |
| COC(=O)Nc1ccccc1F | 1.66 |
| CCc1ccc(NC(=O)OC)cc1 | 2.72 |

Reported logP of CCOc1ccccc1NC(=O)OC : 2.4

* * *

Quantity Name: logP
A bare number is all that is needed in reply.

| Line Notation | logP |
| --- | --- |
| COC(=O)Nc1ccc(C#N)cc1 | 1.67 |
| COC(=O)Nc1ccccc1I | 2.36 |
| COC(=O)Nc1cccc(Br)c1 | 2.71 |
| C=CCOC(=O)Nc1ccc(OCC)c(OCC)c1 | 2.74 |
| CCOc1ccc(NC(=O)OC2CCCC2)cc1OCC | 3.41 |
| CCOc1cccc(NC(=O)OC)c1 | 2.28 |
| COC(=O)Nc1ccc(OC)cc1 | 1.77 |
| CCOc1ccc(NC(=O)OCC(C)C)cc1OCC | 3.33 |

Moving on to the next compound.
Reported logP of COC(=O)Nc1ccccc1Cl : 2.19

* * *

Reported logP values are given for each entry in this list.
A bare number is all that is needed in reply.

Reference set, count: 2
| Line Notation | Test Result |
| --- | --- |
| CCOc1ccc(NC(=O)OC)cc1OCC | 2.2 |
| CCCOC(=O)Nc1ccc(OCC)c(OCC)c1 | 2.97 |

Moving on to the next compound.
Reported logP of COC(=O)Nc1cccc(I)c1 : 2.88
